Target: human full-length HSP90 (Homo sapiens)
Construct: E. coli expressed human full-length HSP90 protein, purified >95%; made in house; host or cells: E. coli
Assay: Fluorescence polarization (FP) binding assay
Details: competitive displacement of fluorescein-labelled probe from human full-length HSP90; activity range; read-out: activity in the fluorescence polarization assay
Let's look at some compounds and their measured IC50.

Answered examples (10):
- smiles.structure: "CSc1nc(-c2ccc3c(c2)OCCO3)c2c(C#N)c[nH]c2n1"
  IC50: "> 10000 nM"
- smiles.structure: "COc1ccc(-c2nc(OCCN3CC[C@H](F)C3)nc3[nH]cc(C#N)c23)cc1OC"
  IC50: "500 to 10000 nM"
- smiles.structure: "CSc1nc(-c2cc(OCCN3CCCC3)c(Cl)cc2Cl)c2c(C#N)c[nH]c2n1"
  IC50: "< 500 nM"
- smiles.structure: "COc1ccc(-c2nc(SC)nc3[nH]cc(C#N)c23)cc1OC"
  IC50: "< 500 nM"
- smiles.structure: "CCOC(=O)CSc1nc(-c2cc(OCCN3CCC(F)(F)C3)c(OC)cc2Cl)c2c(C#N)c[nH]c2n1"
  IC50: "< 500 nM"
- smiles.structure: "CCN(CC)CCSc1nc(-c2cc(OC)c(C#N)cc2Cl)c2c(C#N)c[nH]c2n1"
  IC50: "< 500 nM"
- smiles.structure: "CNC(=O)CSc1nc(-c2ccc(F)cc2C)c2c(C#N)c[nH]c2n1"
  IC50: "< 500 nM"
- smiles.structure: "Cc1cc(F)ccc1-c1nc(N2CCN(C)CC2)nc2[nH]cc(C#N)c12"
  IC50: "> 10000 nM"
- smiles.structure: "COc1cc(Cl)c(-c2nc(S(C)(=O)=O)nc3[nH]cc(C#N)c23)cc1OC"
  IC50: "500 to 10000 nM"
- smiles.structure: "Cc1ccc(-c2ncnc3[nH]cc(C#N)c23)c(C)c1"
  IC50: "500 to 10000 nM"

For COc1cc(-c2nc(SC)nc3[nH]cc(C#N)c23)c(Cl)cc1Cl the compound record lists IC50 as < 500 nM

For CCN(CC)CCOc1nc(-c2cc(OC)c(Cl)cc2Cl)c2c(C#N)c[nH]c2n1 the compound record lists IC50 as < 500 nM

For CSc1nc(-c2ccccc2)c2c(C#N)c[nH]c2n1 the compound record lists IC50 as < 500 nM

For COc1cc(Cl)c(-c2nc(SCC(=O)O)nc3[nH]cc(C#N)c23)cc1OCCN1CCC(F)(F)C1 the compound record lists IC50 as < 500 nM

For Cc1ccc(-c2nc(Cl)nc3[nH]cc(C#N)c23)c(C)c1 the compound record lists IC50 as < 500 nM

----------
Molecular target: human full-length HSP90 (Homo sapiens)
Construct: E. coli expressed human full-length HSP90 protein, purified >95%; made in house; host or cells: E. coli
Test: Fluorescence polarization (FP) binding assay
Conditions: competitive displacement of fluorescein-labelled probe from human full-length HSP90; activity range; read-out: ACTIVITY* (Activity in the FP binding assay)
Let's look at some compounds and their measured IC50.

Answered examples (4):
- compound: "COc1cc(Cl)c(-c2nc(OCCCN3CCCC3=O)nc3[nH]cc(C#N)c23)cc1OC [Example 57]"
  IC50: "< 500 nM"
- compound: "COc1cc(Cl)c(-c2nc(SC)nc3[nH]cc(C#N)c23)cc1OCCN1CC[C@H](F)C1 [Example 73]"
  IC50: "< 500 nM"
- compound: "COc1cc(Cl)c(-c2nc(SC(C)(C)CN3CCC(F)(F)C3)nc3[nH]cc(C#N)c23)cc1OC [Example 90]"
  IC50: "< 500 nM"
- compound: "COc1cc(Cl)c(-c2nc(SC(C)C)nc3[nH]cc(C#N)c23)cc1OCCN1CCC(F)(F)C1 [Example 75]"
  IC50: "< 500 nM"

Please look at the following compound next.
For CCN(CC)CCOc1cc(-c2nc(OC(C)C)nc3[nH]cc(C#N)c23)c(Cl)cc1OC [Example 79] the compound record lists IC50 as < 500 nM

----------
Target: human full-length HSP90 (Homo sapiens)
Construct: E. coli expressed human full-length HSP90 protein, purified >95%; made in house; host or cells: E. coli
Test: Fluorescence polarization (FP) binding assay
Details: competitive displacement of fluorescein-labelled probe from human full-length HSP90; activity range; read-out: ACTIVITY* (Activity in the FP binding assay)
metric: IC50

Answered examples (3):
- smiles.structure: "COc1cc(Cl)c(-c2nc(SC)nc3[nH]cc(C#N)c23)cc1OCCN1CCCC(F)(F)C1"
  IC50: "< 500 nM"
- smiles.structure: "COc1cc(-c2nc(OCCN3CCCC(F)(F)C3)nc3[nH]cc(C#N)c23)c(Cl)cc1C#N"
  IC50: "< 500 nM"
- smiles.structure: "N#Cc1c[nH]c2nc(OCCN3CCC(F)(F)CC3)nc(-c3cc(OCc4ccccc4)c(Cl)cc3Cl)c12"
  IC50: "500 to 10000 nM"

Please look at the following compound next.
For COc1cc(Cl)c(-c2nc(Sc3nccn3C)nc3[nH]cc(C#N)c23)cc1OC the compound record lists IC50 as 500 to 10000 nM

----------
Molecular target: human full-length HSP90 (Homo sapiens, UniProt P08238)
Construct: E. coli expressed human full-length HSP90 protein, purified >95%; made in house; host or cells: E. coli
Sequence (P08238 whole entry): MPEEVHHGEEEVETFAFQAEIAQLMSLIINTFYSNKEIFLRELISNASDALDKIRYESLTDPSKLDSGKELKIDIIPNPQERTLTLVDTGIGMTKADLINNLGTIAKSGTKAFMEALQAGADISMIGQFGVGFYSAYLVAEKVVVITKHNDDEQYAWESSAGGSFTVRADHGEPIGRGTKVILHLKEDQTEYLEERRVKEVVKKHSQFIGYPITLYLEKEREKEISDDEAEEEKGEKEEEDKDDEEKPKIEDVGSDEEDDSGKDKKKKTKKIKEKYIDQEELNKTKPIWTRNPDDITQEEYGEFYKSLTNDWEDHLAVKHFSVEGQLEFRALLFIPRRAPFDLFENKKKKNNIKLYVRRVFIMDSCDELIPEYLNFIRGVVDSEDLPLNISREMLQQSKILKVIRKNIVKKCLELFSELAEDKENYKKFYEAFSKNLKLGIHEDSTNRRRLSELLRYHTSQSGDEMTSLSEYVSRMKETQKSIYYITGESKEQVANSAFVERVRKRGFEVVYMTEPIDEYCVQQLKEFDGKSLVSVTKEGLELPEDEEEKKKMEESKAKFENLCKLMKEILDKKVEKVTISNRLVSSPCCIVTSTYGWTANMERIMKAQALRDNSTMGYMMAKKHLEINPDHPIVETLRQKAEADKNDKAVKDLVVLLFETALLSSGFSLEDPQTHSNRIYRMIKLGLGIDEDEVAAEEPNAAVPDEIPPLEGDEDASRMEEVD
Test: Fluorescence polarization (FP) binding assay
Conditions: competitive displacement of fluorescein-labelled probe from human full-length HSP90; activity range; read-out: ACTIVITY* (Activity in the FP binding assay)
metric: IC50

Answered examples (8):
- molecule: "COc1cc(Cl)c(-c2nc(Oc3ccccc3)nc3[nH]cc(C#N)c23)cc1OC"
  target.desc: "human full-length HSP90 (Homo sapiens, UniProt P08238)"
  result: "< 500 nM"
- molecule: "COc1cc(Cl)c(-c2nc(OCCN3CCC(F)CC3)nc3[nH]cc(C#N)c23)cc1OC"
  target.desc: "human full-length HSP90 (Homo sapiens, UniProt P08238)"
  result: "< 500 nM"
- molecule: "COc1cc(Cl)c(-c2nc(SC)nc3[nH]cc(C#N)c23)cc1OCCN1CC[C@@H](F)C1"
  target.desc: "human full-length HSP90 (Homo sapiens, UniProt P08238)"
  result: "< 500 nM"
- molecule: "CCN(CC)CCOc1nc(-c2ccc(OC)c(OC)c2)c2c(C#N)c[nH]c2n1"
  target.desc: "human full-length HSP90 (Homo sapiens, UniProt P08238)"
  result: "500 to 10000 nM"
- molecule: "CC(C)Sc1nc(-c2cc(OCc3ccccc3)c(Cl)cc2Cl)c2c(C#N)c[nH]c2n1"
  target.desc: "human full-length HSP90 (Homo sapiens, UniProt P08238)"
  result: "500 to 10000 nM"
- molecule: "CCN(CC)CCOc1cc(-c2nc(OC3CCCC3)nc3[nH]cc(C#N)c23)c(Cl)cc1OC"
  target.desc: "human full-length HSP90 (Homo sapiens, UniProt P08238)"
  result: "< 500 nM"
- molecule: "COc1cc(Cl)c(-c2nc(C(C)C)nc3[nH]cc(C#N)c23)cc1OC"
  target.desc: "human full-length HSP90 (Homo sapiens, UniProt P08238)"
  result: "500 to 10000 nM"
- molecule: "COc1cc(Cl)c(-c2nc(OCCN3CCOCC3)nc3[nH]cc(C#N)c23)cc1OC"
  target.desc: "human full-length HSP90 (Homo sapiens, UniProt P08238)"
  result: "< 500 nM"

For CCN(CC)CCOc1nc(-c2cc(OC)c(OC)cc2Cl)c2c(C#N)c[nH]c2n1 the molecule record lists IC50 as < 500 nM

For CCOC(=O)C(C)Sc1nc(-c2cc(OCCN3CCC(F)(F)C3)c(OC)cc2Cl)c2c(C#N)c[nH]c2n1 (centres unmarked) the molecule record lists IC50 as < 500 nM

For COc1cc(Cl)c(-c2nc(OCCN3CC[C@H](F)C3)nc3[nH]cc(C#N)c23)cc1OC the molecule record lists IC50 as < 500 nM

For COc1cc(Cl)c(-c2nc(Cc3ccccc3)nc3[nH]cc(C#N)c23)cc1OC the molecule record lists IC50 as < 500 nM

For CSc1nc(-c2cc(OCc3ccccc3)c(Cl)cc2Cl)c2c(C#N)c[nH]c2n1 the molecule record lists IC50 as 500 to 10000 nM

For CCN(CC)CCOc1cc(-c2nc(SC3CCCC3)nc3[nH]cc(C#N)c23)c(Cl)cc1OC the molecule record lists IC50 as < 500 nM

For CCN(CC)CCNc1nc(-c2cc(OC)c(OC)cc2Cl)c2c(C#N)c[nH]c2n1 the molecule record lists IC50 as 500 to 10000 nM

For COc1cc(Cl)c(-c2nc(SC(C)(C)C)nc3[nH]cc(C#N)c23)cc1OCCN1CC[C@@H](F)C1 the molecule record lists IC50 as < 500 nM

For COc1cc(Cl)c(-c2nc(SC)nc3[nH]cc(C#N)c23)cc1OCCN1CCC(F)(F)CC1 the molecule record lists IC50 as < 500 nM
